Data origin, for the record: ChEMBL document CHEMBL4425184

Would you mind telling me the reported pIC50 of each entry?
Tested on: HCT-116
Assay: Antiproliferative activity against human HCT116 assessed as reduction in cell viability measured after 96 hrs by MTT assay
Type: functional, cell-based
Conditions: HCT-116, 96 h
One number for each entry, as −log10 of the molar value.

Study these solved cases before continuing.
> print(dat)
                                 chemsmiles  measuredproperty  valuemeasured
1  COc1ccc([C@H]2c3cccc(c3O)NC(=O)/C(C)=C/C=C\[C@H](OC)[C@@H](OC(N)=O)/C(C)=C/[C@H](C)[C@@H](O)[C@@H](OC)C[C@@H]2C)cc1             pIC50           6.36
2  CO[C@H]1/C=C\C=C(/C)C(=O)NC2=CC(=O)C=C(C2=O)[C@H](OC)[C@@H](C)C[C@H](OC)[C@H](O)[C@@H](C)/C=C(\C)[C@@H]1OC(N)=O             pIC50           5.03

Moving on to the next compound.
Returns the measured pIC50 for the input compound. Input: `COc1ccc([C@H]2c3cccc(c3O)NC(=O)/C(C)=C/C=C\[C@H](OC)[C@@H](OC(N)=O)/C(C)=C/[C@H](C)[C@@H](OC)[C@@H](OC)C[C@@H]2C)cc1`
5.20

====

For each of the compounds below, state its pIC50.
System: A2780
Assay: Antiproliferative activity against human A2780 assessed as reduction in cell viability measured after 96 hrs by MTT assay
Type: functional, cell-based
Conditions: A2780, 96 h
Answers are plain numbers, as −log10 of the molar value.

Observe how each entry below is paired with its result.
> print(dat)
                                 chemsmiles  valuemeasured
1  COc1ccc([C@H]2c3cccc(c3O)NC(=O)/C(C)=C/C=C\[C@H](OC)[C@@H](OC(N)=O)/C(C)=C/[C@H](C)[C@@H](O)[C@@H](OC)C[C@@H]2C)cc1           6.33
2  CO[C@H]1/C=C\C=C(/C)C(=O)NC2=CC(=O)C=C(C2=O)[C@H](OC)[C@@H](C)C[C@H](OC)[C@H](O)[C@@H](C)/C=C(\C)[C@@H]1OC(N)=O           5.52

Lab note: next compound to report on.
Which measured pIC50 value corresponds to `COc1ccc([C@H]2c3cccc(c3O)NC(=O)/C(C)=C/C=C\[C@H](OC)[C@@H](OC(N)=O)/C(C)=C/[C@H](C)[C@@H](OC)[C@@H](OC)C[C@@H]2C)cc1` ?
5.62
